System: female BALB/C mice
Test: Live imaging in mice: protein expression of Fluc-mRNA delivered by LNP formulations
Format: in vivo
Settings: 7 d; comparator ALC-0315
Property label: average radiation intensity, times that of ALC-0315

| Given smiles | Endpoint value |
| --- | --- |
| CCCCCCCCC(CCCCCCCC)COC(=O)CCCCCN(CCCCCC(=O)OCC(CCCCCCCC)CCCCCCCC)C[C@H](O)CN(CC)CCO | 14.97 times |
| CCCCCCCCC(CCCCCCCC)COC(=O)CCCCCN(CCCCCC(=O)OCC(CCCCCCCC)CCCCCCCC)C[C@H](O)CN(C)CCO | 18.02 times |
| CCCCCCCCC(CCCCCCCC)OC(=O)CCCCCN(CCCCCC(=O)OC(CCCCCCCC)CCCCCCCC)C[C@H](O)CN(CCO)CCO | 7.19 times |
| CCCCCCC(CCCCCC)CCOC(=O)CCCCCCN(CCCCCCC(=O)OCCC(CCCCCC)CCCCCC)C[C@H](O)CN(CCO)CCO | 14.88 times |
| CCCCCCCCCCCOC(=O)CCCCCN(CCCC(=O)OCCCC(CCCCCCCCCC)CCCCCCCCCC)C[C@H](O)CN(CC)CCO | 16.67 times |
